Some substances, each annotated with its measured EC50.
- system tested: hGIPR (Homo sapiens)
- Sequence (P48546 22-466): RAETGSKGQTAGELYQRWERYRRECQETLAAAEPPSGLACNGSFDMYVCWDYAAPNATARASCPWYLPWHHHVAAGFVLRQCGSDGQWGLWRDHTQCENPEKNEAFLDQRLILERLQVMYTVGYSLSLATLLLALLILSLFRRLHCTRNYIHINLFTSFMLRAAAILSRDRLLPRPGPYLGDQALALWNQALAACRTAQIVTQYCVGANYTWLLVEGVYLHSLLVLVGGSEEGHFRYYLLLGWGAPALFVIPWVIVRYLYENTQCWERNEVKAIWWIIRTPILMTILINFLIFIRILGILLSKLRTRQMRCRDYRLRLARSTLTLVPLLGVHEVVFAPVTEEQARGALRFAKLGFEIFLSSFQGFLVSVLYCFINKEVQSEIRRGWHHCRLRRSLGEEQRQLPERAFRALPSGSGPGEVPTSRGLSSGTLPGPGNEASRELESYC
- protocol text: Functional cAMP activation in the presence of 0.1% casein (no HSA);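 also: intracellular cAMP rise after 30 min at 37 °C read by HTRF against a standard curve, scaled between buffer alone (0%) and top control ligand concentration (100%), four-parameter fit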
- Assay type: cell-based
- condition parameters: read-out: Relative cAMP EC50, hGIPR
Starred links: 1 amine or outer side, 2 acyl side, 3 side chain; linkers in the order of their positions; H or OH if unused. Non-standard residues stand in square brackets, D forms with d. Groups on a side chain read outwards from the residue. *: point of attachment. C18 diacid = O=C(O)CCCCCCCCCCCCCCCCC(=O)*; αMePhe(2-F) = C[C@](N)(Cc1ccccc1F)C(=O)O; γGlu = O=C(O)[C@H](CCC(=O)[*:2])N[*:1]; αMeY = C[C@](N)(Cc1ccc(O)cc1)C(=O)O; 4Pal = N[C@@H](Cc1ccncc1)C(=O)O; αMeL = CC(C)C[C@](C)(N)C(=O)O; αMeS = C[C@](N)(CO)C(=O)O; Orn = NCCC[C@H](N)C(=O)O; Aib = CC(C)(N)C(=O)O
endpoint label: EC50 (nM)

H-Y[Aib]QGT[αMePhe(2-F)]TSD[4Pal][αMeS]I[αMeL]LD[Orn]K([γGlu-γGlu-C18 diacid])AQ[Aib][Orn]FI[dE][αMeY]LTEGGPSSGEPPPSGTGE-NH2 [Example 543]	0.0319
H-Y[Aib]QGT[αMePhe(2-F)]TSD[4Pal][αMeS]I[αMeL]LD[Orn]K([γGlu-γGlu-C18 diacid])AQ[Aib][Orn]FI[dE][αMeY]LSEGGPSSGEPPPSGSE-NH2 [Example 560]	0.113
H-Y[Aib]QGT[αMePhe(2-F)]TSD[4Pal]SILLDKK([γGlu-γGlu-C18 diacid])AQ[Aib]AFIEYLEEGGPSSGAPPPSGEGE-NH2 [Example 621]	0.0661

FYI, the data here is from patent US20240270821A1.
